- Study target: human ether-à-go-go-related gene (hERG) potassium channel (human, UniProt Q12809);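 note: peak tail current of the secondary pulse compared with the same well before compound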
- Sequence (Q12809 whole entry, looked up): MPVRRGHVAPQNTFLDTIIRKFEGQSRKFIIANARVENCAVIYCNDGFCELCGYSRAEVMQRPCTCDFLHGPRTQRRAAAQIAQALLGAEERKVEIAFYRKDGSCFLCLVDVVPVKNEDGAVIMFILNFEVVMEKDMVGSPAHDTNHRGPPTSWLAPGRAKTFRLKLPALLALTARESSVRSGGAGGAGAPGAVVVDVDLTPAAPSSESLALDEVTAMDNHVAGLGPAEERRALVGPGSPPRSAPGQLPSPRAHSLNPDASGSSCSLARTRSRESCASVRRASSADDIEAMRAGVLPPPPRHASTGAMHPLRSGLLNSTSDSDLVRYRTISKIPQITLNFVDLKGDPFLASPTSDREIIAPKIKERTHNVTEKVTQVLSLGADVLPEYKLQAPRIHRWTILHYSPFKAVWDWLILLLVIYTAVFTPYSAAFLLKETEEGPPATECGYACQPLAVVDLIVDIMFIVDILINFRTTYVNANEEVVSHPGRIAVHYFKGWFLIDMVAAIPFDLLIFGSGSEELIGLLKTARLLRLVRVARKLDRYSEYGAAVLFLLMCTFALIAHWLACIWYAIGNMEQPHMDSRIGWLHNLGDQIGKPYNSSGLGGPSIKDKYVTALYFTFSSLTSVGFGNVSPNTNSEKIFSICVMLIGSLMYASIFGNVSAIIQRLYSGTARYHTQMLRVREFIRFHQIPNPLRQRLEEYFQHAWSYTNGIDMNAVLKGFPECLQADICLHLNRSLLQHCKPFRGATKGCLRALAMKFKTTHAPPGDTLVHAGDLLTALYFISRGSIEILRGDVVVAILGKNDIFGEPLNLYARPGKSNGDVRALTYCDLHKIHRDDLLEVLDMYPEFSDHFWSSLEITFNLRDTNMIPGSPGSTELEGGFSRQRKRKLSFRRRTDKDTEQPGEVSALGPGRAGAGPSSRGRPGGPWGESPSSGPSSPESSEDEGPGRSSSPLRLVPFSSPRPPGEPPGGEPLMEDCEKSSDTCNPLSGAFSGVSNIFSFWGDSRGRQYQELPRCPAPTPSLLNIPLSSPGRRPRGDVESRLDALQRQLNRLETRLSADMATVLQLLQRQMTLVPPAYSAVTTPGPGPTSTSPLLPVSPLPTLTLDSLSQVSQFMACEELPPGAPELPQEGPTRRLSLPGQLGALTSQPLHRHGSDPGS
- Method description: primary screen, population patch clamp on CHO cells stably expressing hERG; higher = less effect of the substance
In all, about 310,000 compounds went through this assay and about 14,000 (4.5%) showed an effect of 50% or more. Effects have a minus sign here. Many of the other results were omitted from the sample, so strong results are more common in it than they were.
Assay endpoint: hERG current change (%, negative = inhibition) at 10uM (%)
Write the value in % as a bare number.

Below, 8 compounds whose answers are already recorded.
Nc1nc(Cn2nnc(-c3ccccc3F)n2)nc(N2CCOCC2)n1    -73.4
Cc1ccc(-c2nc(CN(C)Cc3ccc4nccnc4c3)c(C)o2)s1    -10.3
COc1ccc2cc(C(c3nnnn3C3CCCC3)N3CCOCC3)c3nnnn3c2c1 (stereo not shown)    -51.7
COc1ccc(-c2nnn(Cc3nc(N)nc(N4CCCCC4)n3)n2)cc1    -9.06
CC(=O)N1N=C(c2ccccc2)CC1c1cn(Cc2ccccc2)c2ccccc12 (stereo not shown)    -13.6
COc1cccc(CNC(=O)CCCn2nc(C)c3c(C)n(-c4ccccc4)nc3c2=O)c1    -10
COc1ccc2cc(C(c3nnnn3C3CCCC3)N3CCCCCC3)c3nnnn3c2c1 (stereo not shown)    15.9
O=C(Nc1ccc(Cl)cn1)c1ccccc1F    -1.25

Request: Give the reported value of hERG current change (%, negative = inhibition) at 10uM for this record: CN(C1CCCCC1)S(=O)(=O)c1cccc(C(=O)OCC(=O)NC2CCCc3ccccc32)c1 (stereo not shown)
Response: -13.9

Request: Give the reported value of hERG current change (%, negative = inhibition) at 10uM for this record: `O=C(CSc1nnnn1-c1ccc2c(c1)OCCO2)N1CCN(C(=O)c2ccco2)CC1`
Response: -16.6

Request: Give the reported value of hERG current change (%, negative = inhibition) at 10uM for this record: CCOc1cc(C(=O)N2CCC(CC3CC(c4cccc(Br)c4)=NO3)(C(=O)NCC3CCCCC3)CC2)cc(OCC)c1OCC (stereo not shown)
Response: 4.14

====

- Study target: human ether-à-go-go-related gene (hERG) potassium channel (human);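 note: peak tail current of the secondary pulse compared with the same well before compound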
- Method description: primary screen, population patch clamp on CHO cells stably expressing hERG; higher = less effect of the substance
The campaign covered roughly 310,000 compounds. About 14,000 (4.5%) showed an effect of 50% or more. Effects have a minus sign here. This excerpt belongs to a sample that is enriched for strong results.
Binary classification by hERG current change (%, negative = inhibition) at 10uM, with -20% as an inclusive lower bound for fulfilled; all other cases are not fulfilled.

Some entries whose results are on file:
Cn1c(NC(=O)C[n+]2cc(-c3ccc(Cl)cc3)n3c2CCC3)cc(=O)n(C)c1=O.[Cl-]    fulfilled
COc1ccc2c(c1)Sc1ccccc1N2CCN(C)C.O=C(O)C(=O)O    not fulfilled
Cn1cccc1-c1cc(C(=O)N/N=C/c2cccc(O)c2)[nH]n1    fulfilled
COc1ccccc1Nc1nc(NCCO)nc(N)c1[N+](=O)[O-]    fulfilled
COc1ccc(/C=N/NC(=O)c2cc(-c3cccn3C)n[nH]2)cc1OC    not fulfilled

Request: Given the entry COc1ccccc1C(C#N)c1cccc(Cl)n1 (stereo not shown) , answer whether its hERG current change (%, negative = inhibition) at 10uM meets or surpasses -20%.
Response: fulfilled

Request: Given the entry COc1ccc(N2C(=O)C(OC(C)=O)C2c2ccc(C)cc2)cc1 (stereo not shown) , answer whether its hERG current change (%, negative = inhibition) at 10uM meets or surpasses -20%.
Response: fulfilled

Request: Given the entry `COc1ccc(-c2c[n+](CC(=O)c3cccs3)c3n2CCC3)cc1.[Br-]` , answer whether its hERG current change (%, negative = inhibition) at 10uM meets or surpasses -20%.
Response: fulfilled

Request: Given the entry OC(CN1CCN(c2ccccc2F)CC1)c1ccc(F)cc1 (stereo not shown) , answer whether its hERG current change (%, negative = inhibition) at 10uM meets or surpasses -20%.
Response: fulfilled

Request: Given the entry COc1ccc(-c2c[n+](CC(=O)OC3CC(C)CCC3C(C)C)c3n2CCC3)cc1.[Cl-] (stereo not shown) , answer whether its hERG current change (%, negative = inhibition) at 10uM meets or surpasses -20%.
Response: not fulfilled

Request: Given the entry `Cc1ccc2nc(N(CCCN(C)C)C(=O)CN3C(=O)c4ccccc4C3=O)sc2c1.Cl` , answer whether its hERG current change (%, negative = inhibition) at 10uM meets or surpasses -20%.
Response: not fulfilled

Request: Given the entry CC1CCC(C(C)C)C(OC(=O)C[n+]2cc(-c3ccc(Cl)cc3)n3c2CCC3)C1.[Cl-] (stereo not shown) , answer whether its hERG current change (%, negative = inhibition) at 10uM meets or surpasses -20%.
Response: not fulfilled

Request: Given the entry COc1ccccc1C(CC(=O)Nc1nccs1)c1ccco1 (stereo not shown) , answer whether its hERG current change (%, negative = inhibition) at 10uM meets or surpasses -20%.
Response: fulfilled

Request: Given the entry OC(CN1CCN(Cc2ccccc2)CC1)c1ccc(Br)cc1 (stereo not shown) , answer whether its hERG current change (%, negative = inhibition) at 10uM meets or surpasses -20%.
Response: not fulfilled

Request: Given the entry `CC(C)[C@@H]1CC[C@@H](C)C[C@H]1OC(=O)C[n+]1cc(-c2ccc(Cl)cc2)n2c1CCCCC2.[Cl-]` , answer whether its hERG current change (%, negative = inhibition) at 10uM meets or surpasses -20%.
Response: not fulfilled

Request: Given the entry `C=CCn1c(SCC(=O)N2CCOCC2)nc2ccccc2c1=O` , answer whether its hERG current change (%, negative = inhibition) at 10uM meets or surpasses -20%.
Response: not fulfilled
